Experiment: Cmax in C57Bl/6 mouse at 10 mg/kg, po measured after 480 mins by LC-MS/MS analysis
Type: ADME, organism-based
Conditions: in vivo
Experimental Endpoint: Cmax (nM)

- C[C@@H]1CN(c2cc(-c3n[nH]c4ccc(OC5(C)CC5)cc34)ncn2)C[C@H](C)O1: 298

* * *

Assay: Oral biavailability in C57Bl/6 mouse at 10 mg/kg measured after 480 mins by LC-MS/MS analysis
Type: ADME, organism-based
Conditions: in vivo
Experimental Endpoint: bioavailability (%)

* C[C@@H]1CN(c2cc(-c3n[nH]c4ccc(OC5(C)CC5)cc34)ncn2)C[C@H](C)O1 [MLi-2] | 45

Hello, the source for this data is ChEMBL document CHEMBL5653623, in case you need it.
